# Test system: P-gp (rat Mdr1a) (Homo sapiens)
# Protocol Text: Substrate activity at P-gp (unknown origin) expressed in LLC-PK1 cells transfected with rat Mdr1a assessed as apparent permeability at 0.1 uM incubated for 3 hrs by LC-MSMS analysis
# Type: ADME, cell-based
Parameter: Papp at 3 h, 0.1 µM (×10⁻⁶ cm/s)
# output: bare number, implied unit ×10⁻⁶ cm/s

Fill blank: measured Papp at 3 h, 0.1 µM of the compound Cn1cc(-c2cccc(C(=O)Nc3cc(N4CC[C@@H](C(C)(C)O)C4)ncc3C(F)(F)F)n2)cn1 is ____.
35

###

Could you please report measured log10 CL/F for the items listed next?
# Protocol Text: Plasma clearance in po dosed CD rat measured after 120 mins by LC-MS/MS analysis
# Type: ADME, organism-based
Give log10 of CL/F, with CL/F taken in mL/min/kg.

Using the record for CC(C)(O)[C@@H]1CCN(c2cnc(C(F)(F)F)c(NC(=O)c3cccc(-c4cnn(C5CCC5)c4)n3)c2)C1 , report its log10 CL/F.
1.50

Field request: log10 CL/F | item: Cn1cc(-c2cccc(C(=O)Nc3cc(N4CC[C@@H](C(C)(C)O)C4)ncc3C(F)(F)F)n2)cn1
1.00

Item under review: CC(C)(O)[C@@H]1CCN(c2cnc(C(F)(F)F)c(NC(=O)c3cccc(-c4cnn(CC5(C(F)(F)F)CC5)c4)n3)c2)C1 . Reported log10 CL/F?
1.94

Please report the recorded log10 CL/F for CC(C)(O)[C@@H]1CCN(c2cnc(C(F)(F)F)c(NC(=O)c3cccc(-c4cnn(CC(F)(F)F)c4)n3)c2)C1 .
1.62

For the molecule shown here, CC(C)(O)[C@@H]1CCN(c2cnc(C(F)(F)F)c(NC(=O)c3cccc(-c4cnn(CC5CC5)c4)n3)c2)C1 , give the reported log10 CL/F.
1.58

// query log10 CL/F value for entry C[C@H]1CN(c2cc(NC(=O)c3cccc(-c4cnn(C)c4)n3)c(C(F)(F)F)cn2)CCN1C1COC1
0.43

Need log10 CL/F, item Cn1cc(-c2cccc(C(=O)Nc3cc(N4CC[C@@H](C(C)(C)O)C4)cnc3C(F)(F)F)n2)cn1
0.83

###

# Protocol Text: Mutagenicity in Salmonella typhimurium TA100 at 30 to 5000 ug in presence of S9 metabolic activation system for 48 hrs by ames test
# Assay type: toxicity, Salmonella enterica subsp. enterica serovar Typhimurium
# Measurement Setup: dose 30-5000 µg
Parameter: Activity

>  <Structure>
Cc1nc(N)cc(N2CC[C@@H](C(C)(C)O)C2)n1

>  <Value Measured>
Non-Toxic

$$$$
>  <Structure>
CC(C)(O)[C@@H]1CCN(c2cnc(C(F)(F)F)c(N)c2)C1

>  <Value Measured>
Non-Toxic

$$$$
>  <Structure>
Cn1cc(-c2cccc(C(=O)Nc3cc(N4CC[C@@H](C(C)(C)O)C4)ncc3C(F)(F)F)n2)cn1

>  <Value Measured>
Non-Toxic

$$$$
>  <Structure>
CC(C)(O)[C@@H]1CCN(c2cc(N)c(C(F)(F)F)cn2)C1

>  <Value Measured>
Toxic

$$$$

###

# Protocol Text: Plasma clearance in po dosed Beagle dog and measured upto 24 hrs by LC-MS/MS analysis
# Format: ADME, organism-based, Canis lupus familiaris
Parameter: CL/F (mL/min/kg)
Numeric answer only, unit mL/min/kg assumed.

// returns reported CL/F for input Cn1cc(-c2cccc(C(=O)Nc3cc(N4CC[C@@H](C(C)(C)O)C4)cnc3C(F)(F)F)n2)cn1
4.8

Value lookup for CL/F; key = Cn1cc(-c2cccc(C(=O)Nc3cc(N4CC[C@@H](C(C)(C)O)C4)ncc3C(F)(F)F)n2)cn1
15

FYI, the data here is from ChEMBL document CHEMBL5107939.
